tested on: HEK-293T; test: Multiplex assay against HEK293T; format: toxicity, cell-based; conditions: human, 24 h, 10 µM, compound concentration 10 uM, replicate 1
parameter measured: Population Mitotic Cells (%)
Field format: number, assumed %, no unit text.

A selection of reference data follows.
CCc1ccc(OCc2ccccc2C(=O)Nc2ccc3nc(C)cc(N)c3c2)cc1.Cl | 55
CC(C)NC(=O)N1CC[C@H](NC2=Nc3cc(F)ccc3N(CC(F)F)c3ccc(Cl)cc32)C1 | 41
COC(=O)C1=C(C)NC(C)=C(C(=O)OCCCN2CCC(c3ccccc3)(c3ccccc3)CC2)[C@H]1c1cccc([N+](=O)[O-])c1 | 11
CC1=C(C(=O)Nc2cc3cn[nH]c3cc2F)C(c2ccc(C(F)(F)F)cc2)CC(=O)N1 (configuration not stated) | 57
Cc1cccc(CN2CCN(C(c3ccccc3)c3ccc(Cl)cc3)CC2)c1.Cl.Cl (configuration not stated) | 24
Cc1ccc(C)c(Oc2ccncc2C(=O)N2CCN(C3CC3)c3ccccc32)c1 | 10
CCCSc1nc(N[C@@H]2C[C@H]2c2ccc(F)c(F)c2)c2nnn([C@@H]3C[C@H](OCCO)[C@@H](O)[C@H]3O)c2n1 | 23
CC(C)c1noc(N2CCC(COc3ccc(-c4ccc(S(C)(=O)=O)cc4)nc3)CC2)n1 | 41
Cc1c[nH]c2nccc(Oc3c(F)cc(Nc4cc(Cl)nc(N)n4)cc3F)c12 | 51
Cc1nc(N2CC[C@H](O)C2)ncc1-c1cc(C(F)(F)F)cc2[nH]ncc12 | 71

Inquiry: Query: Population Mitotic Cells (%); subject: O=c1cc(N2CCOCC2)oc2c(-c3cccc4c3sc3ccccc34)cccc12
Reply text: 38

Inquiry: Suppose we examine the compound COc1ccc(-c2ccc3ncc4c(c3c2)n(-c2ccc(N3CCNCC3)c(C(F)(F)F)c2)c(=O)n4C)cn1.O=C(O)/C=C\C(=O)O ; what Population Mitotic Cells (%) value has been reported?
Reply text: 22

Inquiry: Find the recorded Population Mitotic Cells (%) belonging to CNC(=O)Nc1ccc(-c2nc(N3CC4CCC(C3)O4)c3cnn(C4CCC5(CC4)OCCO5)c3n2)cc1 and report it.
Reply text: 18

Inquiry: Which measured Population Mitotic Cells (%) value corresponds to CN1CCN(Cc2ccc(Nc3ncc(Cl)c(Nc4ccccc4S(=O)(=O)N(C)C)n3)cc2)CC1 ?
Reply text: 30

Inquiry: Quick one: Population Mitotic Cells (%) for Cc1ccccc1C(c1ccccc1C)N1C2CCC1CC(O)(c1ccccc1)C2 (configuration not stated) ?
Reply text: 50

Inquiry: Need Population Mitotic Cells (%), item CC(C)Oc1ccccc1C(=O)Nc1ccccc1C(=O)Nc1cccc(S(=O)(=O)C(F)(F)F)c1
Reply text: 38

Inquiry: What Population Mitotic Cells (%) value was documented for this compound, COc1cc2ncn(-c3cc(OCc4ccccc4C(F)(F)F)c(C(N)=O)s3)c2cc1OC [GW843682X] ?
Reply text: 28

meta.source: ChEMBL document CHEMBL4689842
